TARGET_OR_TEST_SYSTEM: human OX2 receptor (Homo sapiens, UniProt O43614)
Construct: expressed in transfected cells
Sequence (O43614 1-444): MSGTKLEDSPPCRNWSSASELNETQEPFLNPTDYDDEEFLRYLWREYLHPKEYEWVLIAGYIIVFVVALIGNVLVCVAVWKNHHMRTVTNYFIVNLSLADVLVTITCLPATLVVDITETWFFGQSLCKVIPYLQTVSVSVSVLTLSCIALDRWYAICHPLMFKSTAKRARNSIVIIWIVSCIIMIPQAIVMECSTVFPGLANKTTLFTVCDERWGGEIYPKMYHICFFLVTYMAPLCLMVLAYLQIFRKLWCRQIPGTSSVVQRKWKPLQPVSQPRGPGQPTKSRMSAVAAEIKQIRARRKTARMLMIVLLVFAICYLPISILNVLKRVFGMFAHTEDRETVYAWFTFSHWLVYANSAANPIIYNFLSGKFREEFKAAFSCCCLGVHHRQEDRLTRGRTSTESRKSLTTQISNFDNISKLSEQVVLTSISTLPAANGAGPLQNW
EXPERIMENT: Measurement of orexin type 2 receptor agonist activity (calcium fluorescence, Fluo-4, FDSS)
Format: cell-based
RECORDED_CONDITIONS: 3 uM test compound; CHO cells expressing human OX2 receptor; DMSO = 0%, 10 nM orexin A (human) = 100%
OUTCOME_MEASURE: OX2R agonist activity (3 uM, %)

Study these solved cases before continuing.
CS(=O)(=O)N[C@@H]1CN2C(=O)N(c3noc4cc(F)c(F)c(-c5c(F)cc(F)cc5F)c34)C[C@@H]2C1(F)F [Example 171] = 100
O=C1N(c2noc3cc(F)cc(-c4ncc(F)cc4F)c23)CC[C@H]2N1C[C@@H](NS(=O)(=O)C1CC1)C2(F)F [Example 318] = 105
CS(=O)(=O)N[C@@H]1CN2C(=O)N(c3noc4cccc(-c5ccc(F)cc5)c34)CC[C@@H]2C1(F)F [Example 277] = 106
O=C1N(c2noc3cc(OC(F)F)cc(-c4c(F)cccc4F)c23)CC[C@H]2N1C[C@@H](NS(=O)(=O)C1CC1)C2(F)F [Example 256] = 103
CS(=O)(=O)N[C@@H]1CN2C(=O)N(c3noc4cc(F)cc(-c5c(F)cccc5F)c34)CC[C@@H]2C1(F)F [Example 314] = 113
CCS(=O)(=O)N[C@H]1Cn2c(cn(-c3noc4cccc(-c5c(F)cccc5F)c34)c2=O)[C@H]1C (relative stereo) [Example 109] = 103
CCS(=O)(=O)N[C@@H]1Cn2c(cn(-c3noc4cccc(-c5c(F)cccc5F)c34)c2=O)C1(C)C [Example 70] = 105
CCS(=O)(=O)N[C@H]1C[C@H]2CN(c3noc4c(C)ccc(-c5c(F)cccc5F)c34)C(=O)N2C1 [Example 30] = 94

[P] CCS(=O)(=O)N[C@@H]1CN2C(=O)N(c3noc4cccc(-c5ccccc5C)c34)CC[C@@H]2C1(F)F [Example 325]
[Q] CCS(=O)(=O)N[C@@H]1CN2C(=O)N(c3noc4cccc(N5CCCCC5)c34)CC[C@@H]2C1(F)F [Example 333]
Input pair: P , Q . Output: entry with lower OX2R agonist activity (3 uM, %). Answer = label.
Q

* * *

TARGET_OR_TEST_SYSTEM: human OX2 receptor (Homo sapiens, UniProt O43614)
Construct: expressed in transfected cells
EXPERIMENT: Measurement of orexin type 2 receptor agonist activity (calcium fluorescence, Fluo-4, FDSS)
Assay type: cell-based
RECORDED_CONDITIONS: 3 uM test compound; CHO cells expressing human OX2 receptor; DMSO = 0%, 10 nM orexin A (human) = 100%
OUTCOME_MEASURE: OX2R agonist activity (3 uM, %)

CS(=O)(=O)N[C@@H]1CN2C(=O)N(c3noc4cccc(-c5c(F)cccc5F)c34)C[C@@H]2C1(F)F [Example 34] = 106
CS(=O)(=O)N[C@@H]1CN2C(=O)N(c3noc4cccc(-c5ccc(F)cc5F)c34)CC[C@@H]2C1(F)F [Example 290] = 106
Cc1cc2onc(N3C[C@H]4N(C[C@@H](NS(C)(=O)=O)C4(F)F)C3=O)c2c(-c2c(F)cc(F)cc2F)n1 [Example 191] = 98
CCS(=O)(=O)N[C@H]1C[C@H]2CCN(c3noc4cccc(-c5c(F)cc(F)cc5F)c34)C(=O)N2C1 [Example 205] = 107
CS(=O)(=O)N[C@@H]1CN2C(=O)N(c3noc4cc(C(F)F)cc(-c5c(F)cc(F)cc5F)c34)CC[C@@H]2C1(F)F [Example 200] = 122
CCS(=O)(=O)N[C@@H]1CN2C(=O)N(c3noc4cc(F)cc(-c5ncc(F)cc5F)c34)CC[C@@H]2C1(F)F [Example 254] = 95
CCS(=O)(=O)N[C@@H]1CN2C(=O)N(c3noc4cc(C)nc(-c5c(F)cccc5F)c34)CC[C@@H]2C1(F)F [Example 275] = 103
CCS(=O)(=O)N[C@@H]1Cn2c(cn(-c3noc4cc(C)cc(-c5c(F)cc(F)cc5F)c34)c2=O)C1(F)F [Example 155] = 96

Data credit: patent US11987586B1
